Test system: 743489-274-T-PDC complex spheroid growth
Assay: Anticancer human tumor 743489-274-T-PDC patient-derived renal cell carcinoma cell line growth inhibition [AhR]
Conditions: second compound 0.1 µM; first compound 1 µM; stronger effect = lower value
MEASURED_PARAMETER: viability, T/C (%)
Response body: numeric value in %, unit text excluded.

q: Return viability, T/C (reported value) for this compound: COc1ccc([C@@H](O)c2cc(-c3ncnc4cc(N5CCOCC5)ccc34)c(F)cc2Cl)nn1 + Cc1cncc(-c2nc(NCCc3c[nH]c4ccccc34)c3ncn(C(C)C)c3n2)c1
a: 98.1

q: Quick one: give measured viability, T/C for CC1COCCN1c1cc(-c2ccnn2C)c2ccnc(-c3ccn[nH]3)c2n1 (centres undefined) + CC(CO)NC(=O)c1cc(-c2ccc(Cl)cc2)nn(-c2cnn(C)c2)c1=O
a: 88.8

q: Look up and state reported viability, T/C for NS(=O)(=O)OCC1CC(n2ccc3c(NC4CCc5ccccc54)ncnc32)CC1O (centres undefined) + Cc1ccccc1N=Nc1ccc(NC(=O)c2ccnn2C)c(C)c1
a: 146

q: Consider the compound CC1(C)CCC(CN2CCN(c3ccc(C(=O)NS(=O)(=O)c4ccc(NCC5CCOCC5)c([N+](=O)[O-])c4)c(Oc4cnc5[nH]ccc5c4)c3)CC2)=C(c2ccc(Cl)cc2)C1 + CC(CO)NC(=O)c1cc(-c2ccc(Cl)cc2)nn(-c2cnn(C)c2)c1=O . State its measured viability, T/C.
a: 93.7

q: Give the reported viability, T/C for this compound. O=C(c1cc(Cc2n[nH]c(=O)c3ccccc23)ccc1F)N1CCN(C(=O)C2CC2)CC1 + Cc1ccccc1N=Nc1ccc(NC(=O)c2ccnn2C)c(C)c1
a: 90

q: Identify measured viability, T/C corresponding to COc1cc(Nc2ncc3c(n2)-c2ccc(Cl)cc2C(c2c(F)cccc2OC)=NC3)ccc1C(=O)O + CC(CO)NC(=O)c1cc(-c2ccc(Cl)cc2)nn(-c2cnn(C)c2)c1=O
a: 84.4

q: # return recorded viability, T/C for entry CC1(C)CCC(CN2CCN(c3ccc(C(=O)NS(=O)(=O)c4ccc(NCC5CCOCC5)c([N+](=O)[O-])c4)c(Oc4cnc5[nH]ccc5c4)c3)CC2)=C(c2ccc(Cl)cc2)C1 + Cc1ccccc1N=Nc1ccc(NC(=O)c2ccnn2C)c(C)c1
a: 94.7

q: Annotate the compound COc1ccc([C@@H](O)c2cc(-c3ncnc4cc(N5CCOCC5)ccc34)c(F)cc2Cl)nn1 + Cc1ccccc1N=Nc1ccc(NC(=O)c2ccnn2C)c(C)c1 with its measured viability, T/C.
a: 80.1

q: Identify viability, T/C associated with the compound O=C(C=Cc1cccc(S(=O)(=O)Nc2ccccc2)c1)NO + CC(CO)NC(=O)c1cc(-c2ccc(Cl)cc2)nn(-c2cnn(C)c2)c1=O
a: 80.3

q: Tell us which viability, T/C value is on record for NS(=O)(=O)OCC1CC(n2ccc3c(NC4CCc5ccccc54)ncnc32)CC1O (centres undefined) + CC(CO)NC(=O)c1cc(-c2ccc(Cl)cc2)nn(-c2cnn(C)c2)c1=O
a: 123

q: Look up and report measured viability, T/C for this entry: COc1cc(Nc2ncc3c(n2)-c2ccc(Cl)cc2C(c2c(F)cccc2OC)=NC3)ccc1C(=O)O + Cc1ccccc1N=Nc1ccc(NC(=O)c2ccnn2C)c(C)c1
a: 87.5

q: Quote viability, T/C reported for NS(=O)(=O)OCC1CC(n2ccc3c(NC4CCc5ccccc54)ncnc32)CC1O (centres undefined) + Cc1cncc(-c2nc(NCCc3c[nH]c4ccccc34)c3ncn(C(C)C)c3n2)c1 please.
a: 112

q: Please supply the value of reported viability, T/C for the item CC(C)c1c(-c2ccccc2)nc2c(C#N)c[nH]n2c1=O + Cc1cncc(-c2nc(NCCc3c[nH]c4ccccc34)c3ncn(C(C)C)c3n2)c1
a: 103

q: Given CC1COCCN1c1cc(C2(S(C)(=N)=O)CC2)nc(-c2ccnc3[nH]ccc23)n1 (centres undefined) + CC(CO)NC(=O)c1cc(-c2ccc(Cl)cc2)nn(-c2cnn(C)c2)c1=O , respond with its viability, T/C.
a: 92

q: Kindly indicate its recorded viability, T/C. Item: COc1cc(C2c3cc4c(cc3C(OC3OC5COC(C)OC5C(O)C3O)C3COC(=O)C23)OCO4)cc(OC)c1O (centres undefined) + Cc1cncc(-c2nc(NCCc3c[nH]c4ccccc34)c3ncn(C(C)C)c3n2)c1
a: 96.8

q: Return reported viability, T/C. Input compound: COc1cc(C2c3cc4c(cc3C(OC3OC5COC(C)OC5C(O)C3O)C3COC(=O)C23)OCO4)cc(OC)c1O (centres undefined) + Cc1ccccc1N=Nc1ccc(NC(=O)c2ccnn2C)c(C)c1
a: 94.4

q: Supply reported viability, T/C belonging to this compound: O=C(C=Cc1cccc(S(=O)(=O)Nc2ccccc2)c1)NO + Cc1cncc(-c2nc(NCCc3c[nH]c4ccccc34)c3ncn(C(C)C)c3n2)c1
a: 77.5

q: Given COc1cccc2c1C(=O)c1c(O)c3c(c(O)c1C2=O)CC(O)(C(=O)CO)CC3OC1CC(N)C(O)C(C)O1 (centres undefined) + Cc1ccccc1N=Nc1ccc(NC(=O)c2ccnn2C)c(C)c1 , respond with its viability, T/C.
a: 102

q: Using known records, supply viability, T/C for CC1COCCN1c1cc(C2(S(C)(=N)=O)CC2)nc(-c2ccnc3[nH]ccc23)n1 (centres undefined) + Cc1cncc(-c2nc(NCCc3c[nH]c4ccccc34)c3ncn(C(C)C)c3n2)c1
a: 86

* * *

Test system: 743489-274-T-PDC complex spheroid growth
Assay: Anticancer human tumor 743489-274-T-PDC cell line growth inhibition [AhR];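 also: spheroids exposed to agents for 7 days before readout; 100% = DMSO vehicle control wells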
Conditions: second compound 10 µM; first compound 0.0316 µM; stronger effect = lower value
MEASURED_PARAMETER: viability, T/C (%)
Provide the reading as a plain figure in %.

q: Using the record for Nc1ccccc1NC(=O)c1ccc(CNC(=O)OCc2cccnc2)cc1 + Cc1ccccc1N=Nc1ccc(NC(=O)c2ccnn2C)c(C)c1 , state its measured viability, T/C.
a: 86.9

q: Retrieve viability, T/C measured for COc1cc(C2c3cc4c(cc3C(OC3OC5COC(C)OC5C(O)C3O)C3COC(=O)C23)OCO4)cc(OC)c1O (configuration not stated) + CC(CO)NC(=O)c1cc(-c2ccc(Cl)cc2)nn(-c2cnn(C)c2)c1=O and print it.
a: 108

q: In one line, give reported viability, T/C of the entry CC1COCCN1c1cc(C2(S(C)(=N)=O)CC2)nc(-c2ccnc3[nH]ccc23)n1 (configuration not stated) + Cc1ccccc1N=Nc1ccc(NC(=O)c2ccnn2C)c(C)c1 .
a: 85.4

q: Return viability, T/C (reported value) for this compound: CC1COCCN1c1cc(C2(S(C)(=N)=O)CC2)nc(-c2ccnc3[nH]ccc23)n1 (configuration not stated) + Cc1cncc(-c2nc(NCCc3c[nH]c4ccccc34)c3ncn(C(C)C)c3n2)c1
a: 97.3

q: Give the reported value of viability, T/C for this record: CC1(C)CCC(CN2CCN(c3ccc(C(=O)NS(=O)(=O)c4ccc(NCC5CCOCC5)c([N+](=O)[O-])c4)c(Oc4cnc5[nH]ccc5c4)c3)CC2)=C(c2ccc(Cl)cc2)C1 + Cc1ccccc1N=Nc1ccc(NC(=O)c2ccnn2C)c(C)c1
a: 84.8

q: Indicate the recorded viability, T/C value for this compound: CC1COCCN1c1cc(-c2ccnn2C)c2ccnc(-c3ccn[nH]3)c2n1 (configuration not stated) + Cc1ccccc1N=Nc1ccc(NC(=O)c2ccnn2C)c(C)c1
a: 96.2

q: Give viability, T/C for the following compound: CC1COCCN1c1cc(C2(S(C)(=N)=O)CC2)nc(-c2ccnc3[nH]ccc23)n1 (configuration not stated) + CC(CO)NC(=O)c1cc(-c2ccc(Cl)cc2)nn(-c2cnn(C)c2)c1=O
a: 109

q: Annotate the compound O=C(c1cc(Cc2n[nH]c(=O)c3ccccc23)ccc1F)N1CCN(C(=O)C2CC2)CC1 + CC(CO)NC(=O)c1cc(-c2ccc(Cl)cc2)nn(-c2cnn(C)c2)c1=O with its measured viability, T/C.
a: 103

q: Input NS(=O)(=O)OCC1CC(n2ccc3c(NC4CCc5ccccc54)ncnc32)CC1O (configuration not stated) + CC(CO)NC(=O)c1cc(-c2ccc(Cl)cc2)nn(-c2cnn(C)c2)c1=O , output reported viability, T/C.
a: 89.5

q: Please look at this compound and report its viability, T/C: O=C(c1cc(Cc2n[nH]c(=O)c3ccccc23)ccc1F)N1CCN(C(=O)C2CC2)CC1 + Cc1cncc(-c2nc(NCCc3c[nH]c4ccccc34)c3ncn(C(C)C)c3n2)c1
a: 104

q: State, in one line, measured viability, T/C of CC[C@@]1(O)C(=O)OCc2c1cc1n(c2=O)Cc2cc3c(CN(C)C)c(O)ccc3nc2-1 + Cc1ccccc1N=Nc1ccc(NC(=O)c2ccnn2C)c(C)c1
a: 80.7

q: Determine its reported viability, T/C: CC(C)c1c(-c2ccccc2)nc2c(C#N)c[nH]n2c1=O + Cc1ccccc1N=Nc1ccc(NC(=O)c2ccnn2C)c(C)c1
a: 92.2

q: State its viability, T/C: COc1cc(C2c3cc4c(cc3C(OC3OC5COC(C)OC5C(O)C3O)C3COC(=O)C23)OCO4)cc(OC)c1O (configuration not stated) + Cc1ccccc1N=Nc1ccc(NC(=O)c2ccnn2C)c(C)c1
a: 78.4

q: Please look at this compound and report its viability, T/C: COc1cccc2c1C(=O)c1c(O)c3c(c(O)c1C2=O)CC(O)(C(=O)CO)CC3OC1CC(N)C(O)C(C)O1 (configuration not stated) + CC(CO)NC(=O)c1cc(-c2ccc(Cl)cc2)nn(-c2cnn(C)c2)c1=O
a: 92

q: Tell me its viability, T/C given COc1cc(Nc2ncc3c(n2)-c2ccc(Cl)cc2C(c2c(F)cccc2OC)=NC3)ccc1C(=O)O + CC(CO)NC(=O)c1cc(-c2ccc(Cl)cc2)nn(-c2cnn(C)c2)c1=O as the entry.
a: 91.2

q: Give me measured viability, T/C, please, for this compound: COc1ccc([C@@H](O)c2cc(-c3ncnc4cc(N5CCOCC5)ccc34)c(F)cc2Cl)nn1 + Cc1ccccc1N=Nc1ccc(NC(=O)c2ccnn2C)c(C)c1
a: 86.2

q: # return recorded viability, T/C for input COc1cc(Nc2ncc3c(n2)-c2ccc(Cl)cc2C(c2c(F)cccc2OC)=NC3)ccc1C(=O)O + Cc1ccccc1N=Nc1ccc(NC(=O)c2ccnn2C)c(C)c1
a: 76.8
